tested_target: Macrophage metalloelastase (Homo sapiens)
Sequence (P39900 whole entry): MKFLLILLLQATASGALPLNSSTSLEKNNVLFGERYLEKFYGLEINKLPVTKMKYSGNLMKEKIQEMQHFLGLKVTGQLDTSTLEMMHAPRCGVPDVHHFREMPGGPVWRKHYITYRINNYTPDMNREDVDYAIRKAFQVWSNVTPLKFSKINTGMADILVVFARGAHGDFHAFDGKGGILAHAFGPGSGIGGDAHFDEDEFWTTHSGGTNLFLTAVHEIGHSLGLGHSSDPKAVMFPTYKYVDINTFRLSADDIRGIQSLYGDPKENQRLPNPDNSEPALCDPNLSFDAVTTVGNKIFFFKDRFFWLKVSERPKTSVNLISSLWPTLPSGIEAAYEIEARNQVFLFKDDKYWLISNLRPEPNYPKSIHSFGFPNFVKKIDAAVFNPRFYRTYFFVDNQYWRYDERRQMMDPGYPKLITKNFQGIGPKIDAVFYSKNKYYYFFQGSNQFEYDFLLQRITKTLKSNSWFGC
assay_text: Selectivity interaction (MMPs panel (Panlabs panel, Bayer)) EUB0000725a MMP12
measurement_kind: IC50

Exercise: Given `O=C(O)[C@@H]1[C@@H](Cn2nnc3ccccc3c2=O)CC[C@H]1C(=O)c1ccc(OCCC2CCOCC2)cc1` , state its recorded IC50.
Key: > 10 µM

====

tested_target: Tyrosine-protein kinase Lyn (Homo sapiens)
Sequence (P07948 whole entry): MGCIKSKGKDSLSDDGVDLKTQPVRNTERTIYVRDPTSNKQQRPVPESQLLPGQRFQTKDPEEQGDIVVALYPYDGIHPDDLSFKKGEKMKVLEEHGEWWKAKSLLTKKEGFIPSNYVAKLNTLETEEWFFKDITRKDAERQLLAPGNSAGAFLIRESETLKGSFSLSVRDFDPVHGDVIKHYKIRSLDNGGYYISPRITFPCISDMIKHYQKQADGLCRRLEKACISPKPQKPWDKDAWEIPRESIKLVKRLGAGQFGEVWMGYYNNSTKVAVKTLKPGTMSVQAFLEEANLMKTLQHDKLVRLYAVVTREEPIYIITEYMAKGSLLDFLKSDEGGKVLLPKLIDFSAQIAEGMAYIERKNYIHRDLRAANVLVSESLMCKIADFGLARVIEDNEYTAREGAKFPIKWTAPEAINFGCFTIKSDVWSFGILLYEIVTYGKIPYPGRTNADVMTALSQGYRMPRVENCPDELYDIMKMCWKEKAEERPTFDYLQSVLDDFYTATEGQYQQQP
assay_text: Selectivity interaction (NanoBRET assay (HEK293T cells)) EUB0000703a LYN
measurement_kind: pIC50
Worth noting: pIC50 values are minus log10 of concentrations stated in mol/L.

Exercise: Entry `Cc1cc(NC(=O)c2cccc(S(F)(F)(F)(F)F)c2)cc(-n2ccn3nc(-c4cccnc4)cc23)c1` has what pIC50?
Key: 5.15
